Target: CD28 (Homo sapiens, UniProt P10747)
Experiment: Flow binding to Jurkat/IL2 reporter cells (CD28)
Design: host or cells: Jurkat cells expressing an IL-2-luciferase reporter
Conditions: Table E11; 33.3 nM; listed as WT CD80 ECD-Fc = 1.0
Procedure: Binding of selected immunomodulatory fusion proteins to cognate binding partners was assessed. […] Cells were sorted in a Bio-Rad S3 Cell Sorter (Bio-Rad Corp., USA) to >98% purity. […] For staining and analysis by flow cytometry, 100,000 cells of appropriate transfected cells were plated in 96-well round bottom plates. […] Cells were then washed twice with 150 μL/well stain buffer, fixed in 2% formaldehyde/PBS, and analyzed on Intellicyt flow cytometer (Intellicyt Corp., USA). […]

{"Molecule": "Q33R/E35D/M38I/M47L/V68M (protein, UniProt P33681 35-288, looked up, variant Q33R E35D M38I M47L V68M) T-lymphocyte activation …: VIHVTKEVKEVATLSCGHNVSVEELAQTRIYWRKDKKIVLTMMSGDLNIWPEYKNRTIFDITNNLSIMILALRPSDEGTYECVVLKYEKDAFKREHLAEVTLSVKADFPTPSISDFEIPTSNIRRIICSTSGGFPEPHLSWLENGEELNAINTTVSQDPETELYAVSSKLDFNMTTNHSFMCLIKYGHLRVNQTFNWNTTKQEHFPDNLLPSWAITLISVNGIFVICCLTYCFAPRCRERRRNERLRRESVRPV", "CD28 Fold change to WT CD80": 0.5}
{"Molecule": "E24D/E35D/M47L/V68M/E95V/L97Q (protein, UniProt P33681 35-288, looked up, variant E24D E35D M47L V68M E95V L97Q) T-lymphocyte activation …: VIHVTKEVKEVATLSCGHNVSVEDLAQTRIYWQKDKKMVLTMMSGDLNIWPEYKNRTIFDITNNLSIMILALRPSDEGTYECVVLKYEKDAFKRVHQAEVTLSVKADFPTPSISDFEIPTSNIRRIICSTSGGFPEPHLSWLENGEELNAINTTVSQDPETELYAVSSKLDFNMTTNHSFMCLIKYGHLRVNQTFNWNTTKQEHFPDNLLPSWAITLISVNGIFVICCLTYCFAPRCRERRRNERLRRESVRPV", "CD28 Fold change to WT CD80": 0.5}
